Target: P2X7 receptor (Homo sapiens (Human), UniProt Q99572)
Sequence (Q99572 whole entry): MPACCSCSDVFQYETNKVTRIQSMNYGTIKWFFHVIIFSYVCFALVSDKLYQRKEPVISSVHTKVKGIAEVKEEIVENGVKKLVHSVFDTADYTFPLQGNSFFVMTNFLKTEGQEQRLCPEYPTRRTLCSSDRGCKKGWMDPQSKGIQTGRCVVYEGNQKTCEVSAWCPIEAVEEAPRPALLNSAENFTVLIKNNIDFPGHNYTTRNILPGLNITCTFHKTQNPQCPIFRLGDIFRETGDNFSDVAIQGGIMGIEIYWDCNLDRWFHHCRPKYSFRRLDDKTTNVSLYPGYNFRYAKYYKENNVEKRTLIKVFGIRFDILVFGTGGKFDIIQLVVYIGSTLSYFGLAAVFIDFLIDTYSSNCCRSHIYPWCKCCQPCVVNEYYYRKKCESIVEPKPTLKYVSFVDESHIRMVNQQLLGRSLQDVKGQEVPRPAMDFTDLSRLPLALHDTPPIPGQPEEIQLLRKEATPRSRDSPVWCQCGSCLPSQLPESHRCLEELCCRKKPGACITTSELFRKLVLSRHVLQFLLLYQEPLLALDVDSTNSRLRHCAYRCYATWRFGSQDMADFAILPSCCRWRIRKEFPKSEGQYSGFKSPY
Assay: P2X7 FLIPR assay (BzATP-stimulated calcium fluorescence, antagonist IC50)
Type: cell-based
In this section, each of the molecules is paired with its reported log10 IC50.
measured quantity: log10 IC50 (log10 of the value in nM)

molecule	result number
O=C(NCC(CC1(C(F)(F)F)CC1)c1ccc(C(F)(F)F)nc1)c1cccc(F)c1Cl (single isomer, unassigned; (+)) [(+)2-chloro-3-fluoro-N-[3-[1-(trifluoromethyl)cyclopropyl]-2]	0.86
O=C(NCC(CC1(C(F)(F)F)CC1)c1cnc(C(F)(F)F)nc1)c1cccc(F)c1Cl (single isomer, unassigned; (+)) [(+)2-chloro-3-fluoro-N-[3-[1-(trifluoromethyl)cyclopropyl]-2]	0.65
O=C(NCC(c1ccc(F)cc1)c1cnc(C(F)(F)F)nc1)c1cccc(Cl)c1Cl (single isomer, unassigned; (-)) [(−)2,3-dichloro-N-[2-(4-fluorophenyl)-2-[2-(trifluoromethyl)]	0.08
O=C(NCC(c1ccncc1)c1cnc(C(F)(F)F)nc1)c1ccccc1Cl (stereo not shown)	1.48
O=C(NCC(c1cnc(C(F)(F)F)nc1)C1CCC(F)(F)CC1)c1c(F)cccc1Cl (single isomer, unassigned; (+)) [(+)2-chloro-N-[2-(4,4-difluorocyclohexyl)-2-[2-(trfluorometh]	1.88
O=C(NCC(CC1(C(F)(F)F)CC1)c1cnc(C(F)(F)F)nc1)c1ccccc1Cl (single isomer, unassigned; (+))	0.38
Cc1ccc(C2(CNC(=O)c3cccc(Cl)c3Cl)CCC(F)(F)CC2)cn1	0.86
